From: ChEMBL document CHEMBL1201861

Test system: COR-L88;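 also: growth inhibition of COR-L88 cells, read out with a cell viability assay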
Experiment: cells
Type: functional, cell-based, Homo sapiens
Settings: Homo sapiens, COR-L88
Description: SANGER: Inhibition of human COR-L88 cell growth in a cell viability assay.
ASSAY ENDPOINT: pIC50
pIC50 here: minus log base 10 of the concentration, concentration in moles per litre.

Check out these entries, answers already filled in.
{"CHEMICAL SMILES": "Nc1ccccc1NC(=O)c1ccc(CNC(=O)OCc2cccnc2)cc1", "ASSAY ENDPOINT": "pIC50", "READING": 6.64}
{"CHEMICAL SMILES": "CC1(C)CCC(c2ccc(Cl)cc2)=C(CN2CCN(c3ccc(C(=O)NS(=O)(=O)c4ccc(N[C@H](CCN5CCOCC5)CSc5ccccc5)c(S(=O)(=O)C(F)(F)F)c4)cc3)CC2)C1", "ASSAY ENDPOINT": "pIC50", "READING": 6.44}
{"CHEMICAL SMILES": "NC(=O)Nc1cc(-c2cccc(F)c2)sc1C(=O)N[C@H]1CCCNC1", "ASSAY ENDPOINT": "pIC50", "READING": 6.44}
{"CHEMICAL SMILES": "CC1=C(/C=C/C(C)=C/C=C/C(C)=C/C(=O)O)C(C)(C)CCC1", "ASSAY ENDPOINT": "pIC50", "READING": 5.41}

We now examine a further compound.
Supply reported pIC50 belonging to this compound: CC(C)C[C@H](NC(=O)[C@H](Cc1ccccc1)NC(=O)c1cnccn1)B(O)O
8.46
